Source listed as ChEMBL document CHEMBL1141638.

- Assay System: Liver carboxylesterase 1 (Homo sapiens)
- Sequence (P23141 whole entry): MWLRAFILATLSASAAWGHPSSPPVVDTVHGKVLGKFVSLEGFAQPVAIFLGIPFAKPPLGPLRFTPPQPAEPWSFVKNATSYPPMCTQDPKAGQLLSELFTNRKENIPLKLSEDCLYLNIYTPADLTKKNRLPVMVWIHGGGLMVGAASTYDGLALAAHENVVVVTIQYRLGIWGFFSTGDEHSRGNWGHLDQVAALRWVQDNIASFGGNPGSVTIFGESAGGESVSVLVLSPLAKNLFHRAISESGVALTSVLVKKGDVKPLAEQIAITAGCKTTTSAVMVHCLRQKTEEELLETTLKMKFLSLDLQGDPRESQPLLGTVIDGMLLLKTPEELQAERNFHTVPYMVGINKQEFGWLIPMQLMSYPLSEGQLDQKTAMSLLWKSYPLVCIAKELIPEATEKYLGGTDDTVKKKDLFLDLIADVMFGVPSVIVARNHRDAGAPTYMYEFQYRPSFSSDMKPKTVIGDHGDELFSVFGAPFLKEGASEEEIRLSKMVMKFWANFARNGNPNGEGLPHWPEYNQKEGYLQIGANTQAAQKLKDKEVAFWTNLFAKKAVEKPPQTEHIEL
- Measurement Protocol: Inhibition of human recombinant carboxylesterase 1 after 5 mins
Below: a set of entries, each annotated with reported pIC50.
API: returns pIC50 as number; meaning -log10 of concentration in mol/L.

Previously resolved entries follow.
In [3]: df
Out[3]:
                                   compound                             assay_system  observation_type  quantitative_readout
0                   CCCCCCCCCCC(=O)C(F)(F)F  Liver carboxylesterase 1 (Homo sapiens)             pIC50                  7.19
1  CCCCCCCC[S+]([O-])CC(=O)C(F)(F)F (centres undefined)  Liver carboxylesterase 1 (Homo sapiens)             pIC50                  7.52
2                   CCCCCCCCSCC(=O)C(F)(F)F  Liver carboxylesterase 1 (Homo sapiens)             pIC50                  7.62

Now turn to the next compound.
Q) I am curious: what pIC50 value has been reported for CCCCCCCCS(=O)(=O)CC(=O)C(F)(F)F ?
A) 7.74

====

- Assay System: UniProt O00519
- Sequence (O00519 whole entry): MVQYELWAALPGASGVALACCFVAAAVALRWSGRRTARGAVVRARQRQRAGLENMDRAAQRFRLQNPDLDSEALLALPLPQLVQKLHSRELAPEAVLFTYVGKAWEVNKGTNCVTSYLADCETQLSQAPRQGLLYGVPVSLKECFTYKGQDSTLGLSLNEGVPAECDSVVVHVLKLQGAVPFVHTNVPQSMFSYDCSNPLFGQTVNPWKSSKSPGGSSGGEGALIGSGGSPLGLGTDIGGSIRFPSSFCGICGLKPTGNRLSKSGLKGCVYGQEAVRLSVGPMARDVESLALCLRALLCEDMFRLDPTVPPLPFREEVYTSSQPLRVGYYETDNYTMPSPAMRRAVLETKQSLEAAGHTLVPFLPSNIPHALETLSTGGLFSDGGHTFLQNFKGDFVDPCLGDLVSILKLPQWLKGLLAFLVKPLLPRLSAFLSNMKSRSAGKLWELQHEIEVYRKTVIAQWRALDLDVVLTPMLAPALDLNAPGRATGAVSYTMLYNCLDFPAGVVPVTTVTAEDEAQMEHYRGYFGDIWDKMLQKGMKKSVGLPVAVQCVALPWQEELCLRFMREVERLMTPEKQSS
- Measurement Protocol: Inhibition of human recombinant FAAH after 5 mins
Observation Type: IC50 (nM)
# output: bare number, implied unit nM

>>> df
                                   compound  quantitative_readout
0       CCCCCCCCCCCCS(=O)(=O)CC(=O)C(F)(F)F                   250
1                 CCCCCCCCCCSCC(=O)C(F)(F)F                   120
2  CCCCCCCCCC[S+]([O-])CC(=O)C(F)(F)F (stereo unspecified)                   760
3                   CCCCCCCCCCC(=O)C(F)(F)F                  1250
4               CCCCCCCCCCCCSCC(=O)C(F)(F)F                    84

Q) I am curious: what IC50 value has been reported for CCCCCCCCCCS(=O)(=O)CC(=O)C(F)(F)F ?
A) 2200

Q) Further, for CCCCCCCCS(=O)(=O)CC(=O)C(F)(F)F ?
A) 14800

Q) Further, for CCCCCCSCC(=O)C(F)(F)F ?
A) 1950

Q) Further, for CCCCCCCCSCC(=O)C(F)(F)F ?
A) 230

Q) Further, for CCCCCCCCCCCC[S+]([O-])CC(=O)C(F)(F)F (stereo unspecified) ?
A) 440

Q) Further, for CCCCCCCC[S+]([O-])CC(=O)C(F)(F)F (stereo unspecified) ?
A) 6500
